Items are presented alongside their recorded pIC50.
Target: human recombinant KAT-II (Homo sapiens (Human), UniProt Q8N5Z0)
Sequence (Q8N5Z0 30-425): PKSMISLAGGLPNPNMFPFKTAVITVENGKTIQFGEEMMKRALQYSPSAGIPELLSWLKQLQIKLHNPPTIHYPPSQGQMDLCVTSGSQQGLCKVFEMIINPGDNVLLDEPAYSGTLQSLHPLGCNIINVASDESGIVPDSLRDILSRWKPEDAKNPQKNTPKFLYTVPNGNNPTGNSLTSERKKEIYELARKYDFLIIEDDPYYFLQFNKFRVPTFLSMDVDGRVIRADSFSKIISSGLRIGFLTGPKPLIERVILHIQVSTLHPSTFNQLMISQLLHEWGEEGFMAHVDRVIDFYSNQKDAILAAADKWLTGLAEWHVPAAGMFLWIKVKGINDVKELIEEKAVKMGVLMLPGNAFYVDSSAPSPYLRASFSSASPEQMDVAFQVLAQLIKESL
Assay: KAT-II inhibitory test
Format: biochemical
Details: 3.0 μmol/L kynurenine, 37° C., 1 hr, pH 8.0; kynurenic acid quantified by HPLC
pIC50: −log10 of the molar value.
metric-name: pIC50

{"molecule-smiles": "O=C(NCc1ccccc1)[C@H]1CCCN1c1nc2c(=O)n3c(nc2s1)CN(CC(F)F)CC3", "metric-name": "pIC50", "measured-result": 7.29}
{"molecule-smiles": "O=C(NCc1ccccc1)[C@H]1CCCN1c1nc2c(=O)n(CC3CCOCC3)c(C(F)F)nc2s1", "metric-name": "pIC50", "measured-result": 7.96}
{"molecule-smiles": "Cc1noc(-c2nc3sc(N4CCC[C@@H]4C(=O)NCc4ccc(F)cc4)nc3c(=O)n2C)n1", "metric-name": "pIC50", "measured-result": 7.80}

###

Biological target: human recombinant KAT-II (Homo sapiens (Human), UniProt Q8N5Z0)
Assay: KAT-II inhibitory test
Settings: 3.0 μmol/L kynurenine, 37° C., 1 hr, pH 8.0; kynurenic acid quantified by HPLC
Method: The compounds described in the above-mentioned Examples were used for the KAT-II inhibitory test. Preparation of Human Recombinant KAT-II Human recombinant KAT-II was prepared as follows. […] The inhibitory action of the test compound on human recombinant KAT-II was determined by the following method. […] The resultant kynurenic acid was quantified as follows by high performance liquid chromatography. […]
pIC50: −log10 of the molar value.
Items are presented alongside their recorded pIC50.

{"molecule-smiles": "CCn1c(C(F)F)nc2sc(N3CCC[C@@H]3C(=O)N[C@H](COC)c3ccccc3)nc2c1=O", "pIC50": 6.74}
{"molecule-smiles": "O=C(Cc1ccccc1)N1CCC[C@@H]1c1nc2c(=O)[nH]c(C3(C(F)(F)F)CC3)nc2s1", "pIC50": 7.89}
{"molecule-smiles": "CC(C)c1cc(=O)n2nc([C@H]3CCCN3C(=O)CN3CCCc4ccccc43)sc2n1", "pIC50": 6.72}
{"molecule-smiles": "CCc1nc2sc([C@H]3CCCN3C(=O)N[C@@H]3CCc4ccccc43)nc2c(=O)n1C", "pIC50": 6.25}
{"molecule-smiles": "CCn1c(C(F)F)nc2sc(N3CCC[C@@H]3C(=O)NCc3ccc4c(c3)OCO4)nc2c1=O", "pIC50": 7.68}
{"molecule-smiles": "CC(C)c1cc(=O)n2nc([C@H]3CCCN3C(=O)Cc3ccccc3)sc2n1", "pIC50": 6.01}
{"molecule-smiles": "CCc1nc2sc(N3CC[C@@H]3C(=O)NCc3ccccc3)nc2c(=O)n1C", "pIC50": 6.92}
{"molecule-smiles": "Cc1noc(-c2nc3sc([C@H]4CCCN4C(=O)Oc4ccccc4)nc3c(=O)n2C)n1", "pIC50": 7.37}
{"molecule-smiles": "O=C(NCc1ccccc1)[C@H]1CCCN1c1nn2c(=O)c3c(nc2s1)CCCC3", "pIC50": 7.31}
{"molecule-smiles": "O=C(NCc1ccccc1)[C@H]1CCCN1c1nc2c(=O)[nH]c(C(F)(F)c3ccccc3)nc2s1", "pIC50": 8.40}
{"molecule-smiles": "O=C(NCc1ccccc1)[C@H]1CCCN1c1ccc2nc(C3(Cl)CC3)[nH]c(=O)c2n1", "pIC50": 6.72}
{"molecule-smiles": "O=C(NCc1ccccc1)[C@H]1CCCN1c1nc2c(=O)[nH]c(-c3c(F)cccc3F)nc2s1", "pIC50": 8.05}
{"molecule-smiles": "CCc1nc2sc(N3CC(F)(F)C[C@@H]3C(=O)NCc3ccccc3)nn2c(=O)c1F", "pIC50": 5.66}
{"molecule-smiles": "CC(C)c1cc(=O)n2nc([C@H]3CCCN3C(=O)NCc3ccccc3)sc2n1", "pIC50": 6.33}
{"molecule-smiles": "CC(C)(O)c1nc2sc(N3CCC[C@@H]3C(=O)NCc3ccccc3)nc2c(=O)[nH]1", "pIC50": 8.12}
{"molecule-smiles": "CC(C)c1cc(=O)n2nc([C@H]3CCCN3C(=O)Oc3ccc(F)cc3)sc2n1", "pIC50": 7.11}
{"molecule-smiles": "Cc1nc2sc(N3CCC[C@@H]3C(=O)NCc3ccccc3)nn2c(=O)c1C1=CCOCC1", "pIC50": 7.17}
{"molecule-smiles": "CN(C)Cc1nc2sc(N3CCC[C@@H]3C(=O)NCc3ccccc3)nc2c(=O)n1C", "pIC50": 7.11}
{"molecule-smiles": "O=C(NCc1ccccc1)[C@H]1CCCN1c1nc2c(=O)n(CCO)c(C(F)(F)F)nc2s1", "pIC50": 7.12}
{"molecule-smiles": "O=C(NCc1ccccc1)[C@H]1CCCN1c1nc2c(=O)[nH]c(N3CCCCC3)nc2s1", "pIC50": 7.62}
{"molecule-smiles": "CC(C)c1nc2ccc(N3CCC[C@@H]3C(=O)NCc3ccccc3)nn2c(=O)c1F", "pIC50": 7.05}
{"molecule-smiles": "COCCn1c(C(F)F)nc2sc(N3CCC[C@@H]3C(=O)NCc3ccccc3)nc2c1=O", "pIC50": 7.51}
{"molecule-smiles": "COCc1nc2sc(N3CCC[C@@H]3C(=O)NCc3ccccc3)nc2c(=O)n1C1CC1", "pIC50": 6.74}
{"molecule-smiles": "Cc1nc2sc([C@H]3CCCN3C(=O)Nc3csc4ncccc34)nn2c(=O)c1C", "pIC50": 5.43}
{"molecule-smiles": "CCc1nc2sc([C@H]3CCCN3C(=O)NC3(c4ccccc4)CC3)nc2c(=O)n1C", "pIC50": 6.89}
{"molecule-smiles": "O=C(Oc1ccccc1)N1CCC[C@@H]1c1nc2c(=O)[nH]c(-c3ccccc3F)cc2s1", "pIC50": 7.16}
{"molecule-smiles": "CN1CCn2c(nc3sc(N4CCC[C@@H]4C(=O)NCc4ccccc4)nc3c2=O)C1", "pIC50": 6.55}
{"molecule-smiles": "CCc1nc2sc(N3CCC[C@@H]3C(=O)COc3ccccc3)nc2c(=O)n1C", "pIC50": 7.72}
{"molecule-smiles": "CC(C)c1cc(=O)n2nc(N3CCC[C@@H]3C(=O)NCc3ccccn3)sc2n1", "pIC50": 6.72}

###

Target: human recombinant KAT-II (Homo sapiens (Human), UniProt Q8N5Z0)
Experiment: KAT-II inhibitory test
Conditions: 3.0 μmol/L kynurenine, 37° C., 1 hr, pH 8.0; kynurenic acid quantified by HPLC
metric-name: IC50 (nM)

{"compound": "CC(C)c1cc(=O)n2nc([C@H]3CCCN3C(=O)NCc3ccccc3Cl)sc2n1", "measured-result": 170}
{"compound": "CC(C)c1nc2ccc(N3CCC[C@@H]3C(=O)NCc3ccccc3)nc2c(=O)[nH]1", "measured-result": 62}
{"compound": "COCC1(c2nc3sc([C@H]4CCCN4C(=O)Oc4ccccc4)nc3c(=O)[nH]2)CC1", "measured-result": 19}
{"compound": "Cc1ccc(-c2nc3sc(N4CCC[C@@H]4C(=O)NCc4ccccc4)nc3c(=O)[nH]2)s1", "measured-result": 41}
{"compound": "CC(C)c1cc(=O)n2nc([C@H]3CCCN3C(=O)N[C@@H]3CCc4ccccc43)sc2n1", "measured-result": 410}
{"compound": "O=C(NCc1ccccc1)[C@H]1CCCN1c1nc2c(=O)n(C3CCCC3)cnc2s1", "measured-result": 16}
{"compound": "Cc1cc(=O)n2nc(N3C[C@@H]4C[C@@H]4[C@@H]3C(=O)NCc3ccccc3)sc2n1 (racemic)", "measured-result": 3900}
{"compound": "O=C(Oc1ccccc1)N1CCC[C@@H]1c1nc2c(=O)[nH]c(OCC(F)(F)F)nc2s1", "measured-result": 65}
{"compound": "Cc1ccccc1CNC(=O)[C@H]1CCCN1c1nc2c(=O)n(C)c(C)nc2s1", "measured-result": 21}
{"compound": "Cn1c(CN2CCOCC2)nc2sc([C@H]3CCCN3C(=O)OCc3ccccc3)nc2c1=O", "measured-result": 610}
{"compound": "Cc1nc2sc([C@H]3CCCN3C(=O)N[C@H](C)c3ccccc3)nn2c(=O)c1C", "measured-result": 1800}
{"compound": "CC(C)c1cc(=O)n2nc([C@H]3CCCN3C(=O)COc3ccccc3)sc2n1", "measured-result": 1500}
